# assay_system: Cytochrome P450 2C9 (Homo sapiens)
# procedure_summary: qHTS Assay for Inhibitors and Substrates of Cytochrome P450 2C9 (AID 883); note: nearly all actives have a fitted effect of over 60% in size
# condition_details: recombinant CYP2C9, luciferin-H luminescence, 60 min; series mostly up to 57.1 µM
Results filed as inconclusive are left out. The source made the active and inactive calls. Calls come from the whole dose curve; as a rule, active = well fitted inhibition curve with a large enough effect; inconclusive = small, poorly fitted or top-dose-only effect; inactive = no such curve, though single readings can be large or run the other way.
Form entry, call: pick from active, inactive

Previously resolved entries follow.
>>> discrete_label("O=c1ccc2cc3ccoc3cc2o1")
"active"
>>> discrete_label("CCCCN1CCC(COC(=O)c2cc(Cl)c(N)c3c2OCCO3)CC1")
"inactive"
>>> discrete_label("COCCn1c(=O)c(-c2cccs2)nc2cnc(Oc3ccccc3)nc21")
"active"
>>> discrete_label("O=C(c1cnccn1)N1CCC[C@@]2(CCN(c3cccc(-c4ccccc4)c3)C2)C1")
"active"

In this assay, the call recorded for "COCCn1c(=O)c(-c2cccs2)nc2cnc(N3CCNCC3)nc21" was what?
active

# iterate: "COc1ccc(-c2oc3ccc(C)cc3c(=O)c2O)cc1OC"
inactive

Repeat for the following molecule: "COc1cc2cc(Oc3ccc4ccc(=O)oc4c3)c(=O)oc2cc1O"
inactive

These entries and their values trace back to PubChem BioAssay (NCATS).
